# protocol_summary: Pharmacokinetics after single IP administration
# test_context: K18-hACE2(Tg) C57Bl/6J, mouse, liver, 40 mg/kg
observation_type: Cmax (µM)
Write it as a number; the unit µM goes unstated.

Query: I have this compound here, NC(=O)N1CCC(CC(=O)N2CCC([C@H]3c4ncc(Br)cc4CCc4cc(Cl)cc(Br)c43)CC2)CC1 , and I need its recorded Cmax.
Reply: 224

---

# protocol_summary: Pharmacokinetics after single IP administration
# test_context: K18-hACE2(Tg) C57Bl/6J, mouse, plasma, 40 mg/kg
observation_type: AUC(0-inf) (µM·h)
Write it as a number; the unit µM·h goes unstated.

Query: I have this compound here, NC(=O)N1CCC(CC(=O)N2CCC([C@H]3c4ncc(Br)cc4CCc4cc(Cl)cc(Br)c43)CC2)CC1 [LNF, lonafarnib] , and I need its recorded AUC(0-inf).
Reply: 253

---

# protocol_summary: Pharmacokinetics after PO administration
# test_context: K18-hACE2(Tg) C57Bl/6J, mouse, in vivo, 25 mg/kg, t1/2, Lung, PO
observation_type: half-life (h)
Write it as a number; the unit h goes unstated.

Query: I have this compound here, NC(=O)N1CCC(CC(=O)N2CCC([C@H]3c4ncc(Br)cc4CCc4cc(Cl)cc(Br)c43)CC2)CC1 , and I need its recorded half-life.
Reply: 2.1

---

# protocol_summary: Pharmacokinetics after single IP administration
# test_context: K18-hACE2(Tg) C57Bl/6J, mouse, in vivo, 40 mg/kg, t1/2, Lung, single IP
observation_type: half-life (h)
Write it as a number; the unit h goes unstated.

Query: I have this molecule here, NC(=O)N1CCC(CC(=O)N2CCC([C@H]3c4ncc(Br)cc4CCc4cc(Cl)cc(Br)c43)CC2)CC1 [LNF, lonafarnib] , and I need its recorded half-life.
Reply: 8.7

---

# protocol_summary: Pharmacokinetics after PO administration
# test_context: K18-hACE2(Tg) C57Bl/6J, mouse, kidney, 25 mg/kg
observation_type: Cmax (µM)
Write it as a number; the unit µM goes unstated.

Query: I have this compound here, NC(=O)N1CCC(CC(=O)N2CCC([C@H]3c4ncc(Br)cc4CCc4cc(Cl)cc(Br)c43)CC2)CC1 , and I need its recorded Cmax.
Reply: 9.3

---

# protocol_summary: Pharmacokinetics after PO administration
# test_context: K18-hACE2(Tg) C57Bl/6J, mouse, heart, 25 mg/kg
observation_type: AUC(0-inf) (µM·h)
Write it as a number; the unit µM·h goes unstated.

Query: I have this compound here, NC(=O)N1CCC(CC(=O)N2CCC([C@H]3c4ncc(Br)cc4CCc4cc(Cl)cc(Br)c43)CC2)CC1 [LNF, lonafarnib] , and I need its recorded AUC(0-inf).
Reply: 97

---

# protocol_summary: Pharmacokinetics after single IP administration
# test_context: K18-hACE2(Tg) C57Bl/6J, mouse, brain, 40 mg/kg
observation_type: Cmax
Answer with the figure and its unit, nothing else.

Query: I have this compound here, NC(=O)N1CCC(CC(=O)N2CCC([C@H]3c4ncc(Br)cc4CCc4cc(Cl)cc(Br)c43)CC2)CC1 [LNF, lonafarnib] , and I need its recorded Cmax.
Reply: 1460 nM

---

# protocol_summary: Pharmacokinetics after single IP administration
# test_context: K18-hACE2(Tg) C57Bl/6J, mouse, in vivo, 40 mg/kg, t1/2, Plasma, single IP
observation_type: half-life

Query: I have this molecule here, NC(=O)N1CCC(CC(=O)N2CCC([C@H]3c4ncc(Br)cc4CCc4cc(Cl)cc(Br)c43)CC2)CC1 , and I need its recorded half-life.
Reply: 8.8 h
